# measured target: recombinant human ICAM1 (human, UniProt P05362 28-480, limits assumed)
# Sequence (P05362 28-480 limits assumed): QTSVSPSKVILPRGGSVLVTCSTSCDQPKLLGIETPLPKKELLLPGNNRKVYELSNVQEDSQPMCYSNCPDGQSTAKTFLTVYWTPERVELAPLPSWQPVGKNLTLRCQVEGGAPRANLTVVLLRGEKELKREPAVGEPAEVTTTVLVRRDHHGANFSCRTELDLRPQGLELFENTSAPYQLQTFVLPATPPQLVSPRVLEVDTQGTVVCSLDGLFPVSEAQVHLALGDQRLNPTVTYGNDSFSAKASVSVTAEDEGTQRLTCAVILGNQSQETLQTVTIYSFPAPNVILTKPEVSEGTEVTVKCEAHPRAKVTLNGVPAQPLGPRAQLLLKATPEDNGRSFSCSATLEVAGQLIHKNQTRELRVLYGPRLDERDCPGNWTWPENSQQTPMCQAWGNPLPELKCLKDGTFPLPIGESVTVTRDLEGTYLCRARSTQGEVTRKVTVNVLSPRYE
# assay remarks: SPR (Biacore 8K), antibody captured, antigen injected
metric name: kon (M⁻¹ s⁻¹)

8B12 (antibody, human IgG1, kappa, V domains shown, Rabbit-human chimeric anti-ICAM1: rabbit VH and VL on human IgG1 and kappa constant regions) VH: QSVEESGGGLVKPGGTLTLTCTVSGFSLSTHAMGWVRQAPGKGLEYIGIIGSSDRTYYASWAKGRFTISKTSTTVDLKITSPTTEDTATYFCVRDPYDSFDDGYRLWGPGTLVTVSS VL: AYDMTQTPASVEVAVGGTVTIKCQASQSIYSYLSWYQQKPGQRPKFLIYDASKVASGVPSRFKGSGSGTEFTLTISAVQSDDAATYYCQQAYSSSNVDNAFGGGTEVMVKR = 442000
8H1 (antibody, human IgG1, kappa, V domains shown, Rabbit-human chimeric anti-ICAM1: rabbit VH and VL on human IgG1 and kappa constant regions) VH: QSVEESGGRLVTPGTPLTLTCTASGFSLSNYYMSWVRQAPGKGLEWIGIISDSGSTYYASWAKGRFTISKTSTTVDLKITSPTTEDTATYFCARDWSYDSSSGYYYYDMDLWGPGTLVTVSA VL: GYDMTQTPASVEVAVGGTVTIKCQASQSINSWLAWFQHKPGQPPKRLIYKASTLASGVSSRFKGSGSGTQFTLTISGVESADAATYYCQQGYSRSDGEHVFGGGTEVVVKR = 111000
4H5 (antibody, human IgG1, kappa, V domains shown, Rabbit-human chimeric anti-ICAM1: rabbit VH and VL on human IgG1 and kappa constant regions) VH: QSVEESGGRLVTPGTPLTLTCTASGFSLSNYYMSWVRQAPGKGLEWIGIISDSGTTYYASWAKGRFTISKTSTTVDLKITSPTTEDTATYFCARDWSYDSSSGYYYYDMDLWGPGTLVTVSA VL: GYDMTQTPASVEVAVGGTVTIKCQASQSINSWLVWFQHKPGQPPKRLIYKASTLASGVSSRFKGSGSGTHFTLTISGVESADAATYYCQQGYSRSDGEHVFGGGTEVVVKR = 75600
